cAMP Rel EC50, nM (in the presence of 1% HSA) for assorted binders
Biological target: T1, human GIP receptor (human) (UniProt P48546)
T1 sequence (looked up): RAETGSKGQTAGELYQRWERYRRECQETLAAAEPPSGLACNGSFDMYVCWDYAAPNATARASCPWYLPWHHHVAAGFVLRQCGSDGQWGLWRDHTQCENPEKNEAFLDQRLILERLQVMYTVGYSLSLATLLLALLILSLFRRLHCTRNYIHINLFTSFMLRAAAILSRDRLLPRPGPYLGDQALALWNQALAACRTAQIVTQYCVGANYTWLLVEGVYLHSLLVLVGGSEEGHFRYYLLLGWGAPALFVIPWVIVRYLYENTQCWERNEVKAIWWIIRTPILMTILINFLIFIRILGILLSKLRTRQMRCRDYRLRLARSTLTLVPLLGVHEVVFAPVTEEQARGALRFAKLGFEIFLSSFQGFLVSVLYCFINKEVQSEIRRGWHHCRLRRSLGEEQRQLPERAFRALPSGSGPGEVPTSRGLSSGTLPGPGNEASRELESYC
Experiment: cell-based or functional assay
// return numeric value only (unit: nM, not printed)

Input YXQGTFTSDFSKXLDKKAQXAFIEYLIEGGPSSGAPPPSEG (not fully specified; synthetic construct; SITE 2: note = 2-Aminoisobutyric Acid; SITE 13: note = alpha-methyl-leucine; SITE 17: note = Lysine is chemically modified through conjugation of the epsilon-amino group of the Lysine side chain with (2-[2-(2-Amino-ethoxy)-ethoxy]-acetyl)-(gamma-Glu)-CO-gamma -gamma-(CH2)16-CO2H) [Example 49] . Output cAMP Rel EC50, nM (in the presence of 1% HSA): 44.9

Measured cAMP Rel EC50, nM (in the presence of 1% HSA) of YXQGTFTSDFSXXLDKKAQXAFIEYLLAGGPSSGAPPPSGEX (synthetic construct; SITE 2: note = 2-Aminoisobutyric Acid; SITE 12: note = L-ornithine; SITE 13: note = alpha-methyl-leucine; SITE 17: note = Lysine is chemically modified through conjugation of the epsilon-amino group of the Lysine side chain with (2-[2-(2-Amino-ethoxy)-ethoxy]-acetyl)-(gamma-Glu)) [Example 91] : 23.9

The reported value for YXQGTFTSDFSRXLDKKAQXAFIEYLLEGGPSSGAPPPSGS (synthetic construct; SITE 2: note = 2-Aminoisobutyric Acid; SITE 13: note = alpha-methyl-leucine; SITE 17: note = Lysine is chemically modified through conjugation of the epsilon-amino group of the Lysine side chain with (2-[2-(2-Amino-ethoxy)-ethoxy]-acetyl)-(gamma-Glu)-CO-(CH2) 16-CO2H; SITE 20: n) [Example 143] in terms of cAMP Rel EC50, nM (in the presence of 1% HSA) is 63.9
